- Test system: K562
- assay-overview: Antiproliferative activity against human K562 cells assessed as reduction in cell viability measured after 48 hrs by MTT assay
- Type: functional, cell-based
- condition-info: k562
value-kind: IC50 (nM)
Write the value in nM as a bare number.

So what's the measured IC50 for this one? Cc1c(-c2ccc(-c3ccccc3F)cc2)nc2ccc(F)cc2c1C(=O)O [BREQUINAR] 540

###

- tested-on: Dihydroorotate dehydrogenase (quinone), mitochondrial (Homo sapiens)
- Sequence (Q02127 whole entry): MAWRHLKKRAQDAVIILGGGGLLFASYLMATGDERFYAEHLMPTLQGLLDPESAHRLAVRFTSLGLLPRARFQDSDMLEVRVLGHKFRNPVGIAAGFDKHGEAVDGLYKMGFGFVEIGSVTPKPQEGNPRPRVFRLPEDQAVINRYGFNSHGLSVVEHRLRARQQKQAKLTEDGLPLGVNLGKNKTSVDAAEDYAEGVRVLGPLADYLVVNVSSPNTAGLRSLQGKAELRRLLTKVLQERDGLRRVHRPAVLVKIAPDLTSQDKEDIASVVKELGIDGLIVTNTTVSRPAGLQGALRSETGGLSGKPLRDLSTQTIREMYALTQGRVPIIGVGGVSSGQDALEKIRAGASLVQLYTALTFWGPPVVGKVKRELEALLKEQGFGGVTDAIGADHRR
- assay-overview: Inhibition of recombinant human DHODH expressed in baculovirus infected insect cells using dihydroorotate as substrate and decylubiquinone as co-substrate by 2,6-dichlorophenol-indophenol-coupled spectrophotometric analysis
value-kind: IC50
# number then unit; no other words

Which IC50 value is on record for O=C1C(O)=C(CC=C(Cl)Cl)C(=O)c2ccccc21 ? 67 nM

###

- Test system: NAMALVA
- assay-overview: Antiproliferative activity against human NAMALWA cells assessed as reduction in cell viability measured after 48 hrs by MTT assay
- Assay type: functional, cell-based
- condition-info: namalva
pIC50: −log10 of the molar value.
value-kind: pIC50

Param item = Cc1c(-c2ccc(-c3ccccc3F)cc2)nc2ccc(F)cc2c1C(=O)O ; retrieve measured pIC50. < 5.00

###

- tested-on: UniProt:Q02127
- assay-overview: Inhibition of human DHODH using dihydroorotate as substrate and CoQ10 as co-substrate preincubated for 30 mins followed by substrate addition by DCIP coupled microplate reader assay
Exam item: assign Y to entries whose IC50 is below 5 nM and N to entries at or above 5 nM. Note that a value of exactly 5 nM receives N.

In [3]: df
Out[3]:
                               query_smiles  class
0     O=C1c2ccccc2C(=O)c2c1nnn2-c1cccc(I)c1      N
1  Cc1ccc(-n2nnc3c2C(=O)c2ccccc2C3=O)cc1C(F)(F)F      N
2  COC(=O)Cc1cccc(-c2c(F)cc(-n3nnc4c3C(=O)c3ccccc3C4=O)cc2F)c1      Y
3  CC(C)c1ccc(-c2c(F)cc(-n3nnc4c3C(=O)c3ccccc3C4=O)cc2F)cc1      N

Quick check: does O=C1c2ccccc2C(=O)c2c1nnn2-c1ccc(-c2ccncc2)cc1 have IC50 under 5 nM? N

Again, but for COc1cc(-c2ccc(-n3nnc4c3C(=O)c3ccccc3C4=O)cc2)cc(OC)c1OC N

What about this compound? O=C1c2ccccc2C(=O)c2c1nnn2-c1ccc(-c2cccc(O)c2)cc1 N

###

# maps each entry to its IC50
- System: NAMALVA
- assay-overview: Antiproliferative activity against human NAMALWA cells assessed as reduction in cell viability measured after 48 hrs by MTT assay
- Format: functional, cell-based
- condition-info: Homo sapiens, NAMALVA, 48 h

See these solved cases before continuing.
                               query_smiles      val
0  O=C1c2ccccc2C(=O)c2c1nnn2-c1ccc(-c2ccccc2F)cc1  2.79 µM
1  CN(C)c1cccc(-c2c(F)cc(-n3nnc4c3C(=O)c3ccccc3C4=O)cc2F)c1  > 10 µM
2  COc1cc(-n2nnc3c2C(=O)c2ccccc2C3=O)ccc1-c1ccccc1  > 10 µM

IC50 lookup needed for O=C1c2ccccc2C(=O)c2c1nnn2-c1cc(F)c(-c2cccc(CO)c2F)c(F)c1 , thanks. > 10 µM

Again, but for O=C1c2ccccc2C(=O)c2c1nnn2-c1cc(F)c(-c2ccc(F)cc2)c(F)c1 > 10 µM

Input COc1cccc(-c2c(F)cc(-n3nnc4c3C(=O)c3ccccc3C4=O)cc2F)c1 1.04 µM

Another compound: O=C1c2ccccc2C(=O)c2c1nnn2-c1cc(F)c(-c2cccc(CO)c2)c(F)c1 > 10 µM
